Tested on: A. gambiae mouthpart ATP-sensitive receptor
Experiment: Electrophysiological response to 200 pM ATP with PR antagonist admixed
Type: cell-based, Anopheles gambiae
Details: 200 pM ATP; suramin at 1 nM
Residues, ends and D or L forms follow the SMILES beside them.
measured-quantity: effect on EP response to ATP, in words

molecule	effect on EP response to ATP, in words
Nc1c(S(=O)(=O)O)cc(Nc2ccc(Nc3nc(Cl)nc(Nc4cccc(S(=O)(=O)O)c4)n3)c(S(=O)(=O)O)c2)c2c1C(=O)c1ccccc1C2=O [RB-2]	inhibited
Cc1nc(C)c(C)nc1C [TMP, 2,3,5,6-tetramethylpyrazine]	inhibited
O=C(O)c1cc(C(=O)O)c(C(=O)N(Cc2cccc(Oc3ccccc3)c2)[C@H]2CCCc3ccccc32)cc1C(=O)O [A-317491]	inhibited
CC(C)C[C@H](N)C(=O)N[C@H](C(=O)N[C@H](C(=O)N[C@@H](Cc1ccc(O)cc1)C(=O)N1CCC[C@H]1C(=O)N[C@@H](Cc1c[nH]c2ccccc12)C(=O)N[C@H](C(=O)O)[C@@H](C)O)C(C)C)C(C)C [Spinorphin] (H-LVVYPWT-OH)	inhibited

Return effect on EP response to ATP, in words measured with A. gambiae mouthpart ATP-sensitive receptor given this molecule: Cn1c(=O)c2[nH]c(C3CCCC3)nc2n(C)c1=O [CPT, 8-cyclopentyl-1,3-dimethylxanthine]
not
